- Target: T1, RRPPGFSPF-biotin (mouse)
- T1 construct: also called DAKLP-b; DAKLP-biotin
- T1 peptide: RRPPGFSPF-{Biotin′}
- Method Notes: Biacore, biotin-peptide on SA chip;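 further: purified antibodies injected as twofold dilutions from 0.1 to 10 nM in HBS-EP over streptavidin-captured biotinylated BKR1 or BKR2 ligand peptides, with a random-peptide flow cell as reference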
Primed or numbered codes have the meaning given here. Ends that are not written are not given here. Biotin′ = not defined here
For each entry below, report its kon value.
Your answer is read as M⁻¹ s⁻¹, so omit the unit and give the number.

Exercise: Give the measured kon for humanized F151 variant HC2b/LC2a (antibody, human IgG1, V domains shown, also called LC2axHC2b) VH: QIQLVQSGAEVKKPGASVKVSCKASGYSFTDYNIYWVKQSPGKGLEWIGYFDPYNGNTGYNEKFRGKATLTVDKSSSTAYMHLSSLTSEESAVYYCANYYRYDDHAMDYWGQGTSVTVSS VL: DIVMTQSPSSLSASVGDRVTISCKSSQSLLYSSNQKNYLAWYQQKPGKSPKPLIYWASTRESGVPDRFSGSGSGTDFTLTISSVQAEDLATYYCQQYYSYPWTFGGGTKLEIK
Solution: 446000

Exercise: Respond only with kon recorded for humanized F151 variant HC1/LC1 (antibody, V domains shown, also called LC1xHC1) VH: EIQLVQSGPEVKKPGASVKVSCKASGYSFTDYNIYWVKQSPGKSLEWIGYFDPYNGNTGYNQKFRGKATLTVDKSSSTAFMHLSSLTSEDSAVYYCANYYRYDDHAMDYWGQGTSVTVSS VL: DIVMSQSPSSLAASVGDRVTMSCKSSQSLLYSSNQKNYLAWYQQKPGKSPKPLIYWASTRESGVPDRFTGSGSGTDFTLTISSVQAEDLAIYYCQQYYSYPWTFGGGTKLEIK
Solution: 500000

Exercise: Please report kon for the following binder: humanized F151 variant HC2a/LC2a (antibody, human IgG1, V domains shown, also called LC2axHC2a) VH: QIQLVQSGAEVKKPGASVKVSCKASGYSFTDYNIYWVKQSPGKGLEWIGYFDPYNGNTGYNQKFRGKATLTVDKSSSTAYMHLSSLTSEESAVYYCANYYRYDDHAMDYWGQGTSVTVSS VL: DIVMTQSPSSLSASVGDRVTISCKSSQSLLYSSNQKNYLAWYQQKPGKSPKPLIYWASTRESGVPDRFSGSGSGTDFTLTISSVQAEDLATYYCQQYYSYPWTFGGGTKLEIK
Solution: 410000

Exercise: Note down kon recorded for humanized F151 variant HC2c/LC2b (antibody, human IgG1, V domains shown, also called LC2bxHC2c) VH: QIQLVQSGAEVKKPGASVKVSCKASGYSFTDYNIYWVKQSPGKGLEWIGYFDPYNGNTGYNQKFRGKATLTVDKSSSTAYMHLSSKTSEESAVYYCANYYRYDDHAMDYWGQGTSVTVSS VL: DIVMTQSPSSLSASVGDRVTISCKSSQSLLYSSNQKNYLAWYQQKPGKSPKPLIYWASTRESGVPDRFSGSGSGTDFTLTISSVQAEDKATYYCQQYYSYPWTFGGGTKLEIK
Solution: 903000
